pKi: −log10 of the molar value.
# merged literature set: pKi with UniProtKB P14780
# Sequence (P14780 whole entry): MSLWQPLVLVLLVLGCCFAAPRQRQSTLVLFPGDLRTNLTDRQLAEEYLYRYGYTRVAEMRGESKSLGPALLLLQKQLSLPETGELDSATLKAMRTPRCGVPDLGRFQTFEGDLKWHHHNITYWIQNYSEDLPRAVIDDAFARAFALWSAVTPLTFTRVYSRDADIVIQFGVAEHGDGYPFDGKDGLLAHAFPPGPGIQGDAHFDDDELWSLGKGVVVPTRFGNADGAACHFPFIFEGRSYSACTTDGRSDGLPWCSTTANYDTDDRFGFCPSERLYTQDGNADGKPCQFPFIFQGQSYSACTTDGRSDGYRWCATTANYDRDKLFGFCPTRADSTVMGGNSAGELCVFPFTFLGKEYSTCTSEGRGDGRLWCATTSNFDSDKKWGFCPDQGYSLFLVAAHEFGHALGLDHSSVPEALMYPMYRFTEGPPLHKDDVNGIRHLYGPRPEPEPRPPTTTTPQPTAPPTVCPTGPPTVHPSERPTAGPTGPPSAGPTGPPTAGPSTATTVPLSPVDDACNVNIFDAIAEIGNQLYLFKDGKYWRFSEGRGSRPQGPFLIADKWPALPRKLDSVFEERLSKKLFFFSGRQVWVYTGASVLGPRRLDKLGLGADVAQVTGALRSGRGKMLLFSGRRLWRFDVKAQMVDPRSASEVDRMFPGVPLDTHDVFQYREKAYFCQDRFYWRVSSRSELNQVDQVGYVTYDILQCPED

| Compound | Tgt | Qualifier symbol | pKi |
| --- | --- | --- | --- |
| COc1cccc(-c2ccc(C[C@H](CC(=O)NO)C(=O)N[C@H]3c4ccccc4C[C@H]3O)cc2)c1 | UniProtKB P14780 | = | 8.55 |
| CNC(=O)[C@H](Cc1c[nH]c2ccccc12)NC(=O)[C@@H](CC(=O)NOCc1ccccc1)CC(C)C | UniProtKB P14780 | = | 7.89 |
| CNC(=O)[C@H](Cc1ccc(OC)cc1)NS(=O)(=O)C(CC(=O)O)CC(C)C (some centres not stated) | UniProtKB P14780 | = | 4.72 |
| Cc1cc(COc2ccc(S(=O)(=O)CC3(CC(=O)NO)CCCCN3C)cc2)c2ccccc2n1 (configuration not stated) | UniProtKB P14780 | < | 5.68 |
| Cc1cc(COc2ccc(NC(=O)[C@H]3CCN(C(=O)OC(C)C)C[C@@H]3C(=O)NO)cc2)c2ccccc2n1 | UniProtKB P14780 | = | 6.60 |
| O=C(N[C@H]1c2ccccc2C[C@H]1O)[C@H](Cc1cccc(O)c1)[C@@H](C(=O)NO)C1CNC1 | UniProtKB P14780 | < | 5.67 |
| CC(C)C[C@H](CC(=O)NO)C(=O)N[C@H](Cc1ccc2ccccc2c1)C(=O)N[C@@H](C)c1ccccc1 | UniProtKB P14780 | = | 8.16 |
| CC(C)C[C@H](CC(=O)NO)C(=O)N[C@H](Cc1ccc(-c2ccccc2)cc1)C(=O)NCCCN1CCOCC1 | UniProtKB P14780 | = | 8.44 |
| C[C@H](NC(=O)[C@H](Cc1ccccc1)NS(=O)(=O)c1cccc2c(N(C)C)cccc12)C(=O)Nc1n[nH]c(=S)s1 | UniProtKB P14780 | = | 4.30 |
| Cc1nc2ccccc2n1Cc1ccc(C(=O)N[C@@H]2CN(C(=O)OC(C)(C)C)C[C@@H]2C(=O)NO)cc1 | UniProtKB P14780 | < | 5.67 |
| O=C(NO)[C@H]1C[C@@H](n2cc(-c3ccccc3)nn2)CN1S(=O)(=O)c1ccc(Cl)c(Cl)c1 | UniProtKB P14780 | < | 5.00 |
| CNC(=O)[C@@H](Cc1ccccc1)NC(=O)[C@@H](CC(=O)NO)CC(C)C | UniProtKB P14780 | = | 9.02 |
| CNC(=O)[C@@H]1CCCCNC(=O)OCCC[C@H](C(=O)NO)[C@@H](CC(C)C)C(=O)N1 | UniProtKB P14780 | = | 8.96 |
| CC(C)C[C@H](CC(=O)NO)C(=O)N[C@@H](Cc1c[nH]c2ccccc12)C(=O)NCc1ccccc1 | UniProtKB P14780 | = | 8.30 |
| COc1cc(COc2ccc3c(c2)NCCN([C@H](C)C(=O)NO)S3(=O)=O)cc(OC)c1 | UniProtKB P14780 | < | 5.67 |
| CNC(=O)[C@H](Cc1ccccc1)NC(=O)[C@@H](CC(C)C)S[C@H]1CN(C(C)=O)C[C@H]1S (mixture of isomers) | UniProtKB P14780 | = | 8.24 |
| O=C(N[C@H]1c2ccccc2C[C@H]1O)[C@H](Cc1cccc(O)c1)[C@@H](C(=O)NO)C1CN(C(=O)C(F)(F)F)C1 | UniProtKB P14780 | = | 5.83 |
